TESTED ON: H3 receptor (Cavia porcellus, UniProt Q9JI35)
Construct: The source of the H3 receptors in this experiment was guinea pig brain; from tissue; host or cells: guinea pig brain membranes
Sequence (Q9JI35 whole entry): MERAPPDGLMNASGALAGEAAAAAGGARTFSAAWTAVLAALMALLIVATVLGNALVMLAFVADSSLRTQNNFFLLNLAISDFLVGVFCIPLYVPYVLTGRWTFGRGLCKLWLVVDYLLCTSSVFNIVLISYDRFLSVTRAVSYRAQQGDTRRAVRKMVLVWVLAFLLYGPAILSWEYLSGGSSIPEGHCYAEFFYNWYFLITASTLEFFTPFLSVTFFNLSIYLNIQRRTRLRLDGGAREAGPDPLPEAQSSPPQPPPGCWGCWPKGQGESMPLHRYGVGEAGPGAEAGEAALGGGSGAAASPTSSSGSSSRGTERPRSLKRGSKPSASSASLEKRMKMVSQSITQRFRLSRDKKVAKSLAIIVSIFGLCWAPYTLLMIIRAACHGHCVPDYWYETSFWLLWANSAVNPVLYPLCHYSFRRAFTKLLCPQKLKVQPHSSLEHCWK
ASSAY TEXT: H3 Receptor Binding Assay
Design: species or system guinea pig
ASSAY CONDITIONS: pH 7.5, read-out: Inhibition of binding of radioactive ligand, Inhibition (%) at 2 μg/ml
For each of the compounds below, state its inhibition at 2 µg/mL.
Write the answer as a number in %, unit excluded.

Input `O=C(OCc1ccc(Cc2c[nH]cn2)cc1)c1ccc(Cl)cc1` . Output inhibition at 2 µg/mL: 10

Input `O=C(NCc1ccc(Cl)cc1)c1ccc(Cc2c[nH]cn2)cc1` . Output inhibition at 2 µg/mL: 61
